- assay-notes: Inhibition of Sodium/potassium-transporting ATPase in porcine brain peincubated for 5 mins followed by addition of ATP and measured after 15 mins
- Assay type: tissue-based, Sus scrofa domesticus
pIC50: −log10 of the molar value.
measured-endpoint: pIC50

Exam item: Please look up its pIC50: CC1=CCC[C@@H]2[C@@](C)(CC/C(C)=C/Cn3c[n+](C)c4ncnc(N)c43)[C@H](C)CC[C@@]12C
Marked response: 4.54 to 4.96

====

- measurement-target: Sarcoplasmic/endoplasmic reticulum calcium ATPase 1 (Oryctolagus cuniculus, UniProt P04191)
- Sequence (P04191 whole entry): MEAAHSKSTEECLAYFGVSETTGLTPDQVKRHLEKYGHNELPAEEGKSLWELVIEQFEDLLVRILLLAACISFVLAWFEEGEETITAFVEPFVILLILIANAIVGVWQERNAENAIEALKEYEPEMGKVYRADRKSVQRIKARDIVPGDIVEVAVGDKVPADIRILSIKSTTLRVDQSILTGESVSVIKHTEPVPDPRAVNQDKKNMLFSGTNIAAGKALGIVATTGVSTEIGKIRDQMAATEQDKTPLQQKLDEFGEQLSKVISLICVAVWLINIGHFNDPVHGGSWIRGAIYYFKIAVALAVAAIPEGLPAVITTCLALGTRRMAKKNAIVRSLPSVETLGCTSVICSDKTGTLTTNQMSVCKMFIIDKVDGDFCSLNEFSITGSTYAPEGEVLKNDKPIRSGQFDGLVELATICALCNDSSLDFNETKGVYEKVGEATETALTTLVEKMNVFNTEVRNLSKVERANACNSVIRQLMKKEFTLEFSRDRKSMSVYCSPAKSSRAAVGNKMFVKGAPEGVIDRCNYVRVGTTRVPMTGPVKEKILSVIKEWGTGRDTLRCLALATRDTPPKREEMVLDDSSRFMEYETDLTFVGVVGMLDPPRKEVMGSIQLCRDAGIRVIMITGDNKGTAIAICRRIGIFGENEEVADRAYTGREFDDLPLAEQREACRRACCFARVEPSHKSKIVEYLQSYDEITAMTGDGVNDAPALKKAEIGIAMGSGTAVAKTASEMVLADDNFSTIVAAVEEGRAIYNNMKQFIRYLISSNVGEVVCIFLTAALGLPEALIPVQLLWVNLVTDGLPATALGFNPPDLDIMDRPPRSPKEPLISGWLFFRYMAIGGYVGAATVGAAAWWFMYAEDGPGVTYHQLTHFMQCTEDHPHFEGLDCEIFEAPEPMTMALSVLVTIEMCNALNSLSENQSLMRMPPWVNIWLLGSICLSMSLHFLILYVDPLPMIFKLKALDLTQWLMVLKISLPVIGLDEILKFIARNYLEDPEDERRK
- assay-notes: Inhibition of rabbit SERCA1a
measured-endpoint: IC50

Exam item: Please look up its IC50: CCCCCCCCCc1ccc(O)cc1
Marked response: 0.35 to 6 µM

====

- measurement-target: Sarcoplasmic/endoplasmic reticulum calcium ATPase 2 (Homo sapiens, UniProt P16615)
- Sequence (P16615 whole entry): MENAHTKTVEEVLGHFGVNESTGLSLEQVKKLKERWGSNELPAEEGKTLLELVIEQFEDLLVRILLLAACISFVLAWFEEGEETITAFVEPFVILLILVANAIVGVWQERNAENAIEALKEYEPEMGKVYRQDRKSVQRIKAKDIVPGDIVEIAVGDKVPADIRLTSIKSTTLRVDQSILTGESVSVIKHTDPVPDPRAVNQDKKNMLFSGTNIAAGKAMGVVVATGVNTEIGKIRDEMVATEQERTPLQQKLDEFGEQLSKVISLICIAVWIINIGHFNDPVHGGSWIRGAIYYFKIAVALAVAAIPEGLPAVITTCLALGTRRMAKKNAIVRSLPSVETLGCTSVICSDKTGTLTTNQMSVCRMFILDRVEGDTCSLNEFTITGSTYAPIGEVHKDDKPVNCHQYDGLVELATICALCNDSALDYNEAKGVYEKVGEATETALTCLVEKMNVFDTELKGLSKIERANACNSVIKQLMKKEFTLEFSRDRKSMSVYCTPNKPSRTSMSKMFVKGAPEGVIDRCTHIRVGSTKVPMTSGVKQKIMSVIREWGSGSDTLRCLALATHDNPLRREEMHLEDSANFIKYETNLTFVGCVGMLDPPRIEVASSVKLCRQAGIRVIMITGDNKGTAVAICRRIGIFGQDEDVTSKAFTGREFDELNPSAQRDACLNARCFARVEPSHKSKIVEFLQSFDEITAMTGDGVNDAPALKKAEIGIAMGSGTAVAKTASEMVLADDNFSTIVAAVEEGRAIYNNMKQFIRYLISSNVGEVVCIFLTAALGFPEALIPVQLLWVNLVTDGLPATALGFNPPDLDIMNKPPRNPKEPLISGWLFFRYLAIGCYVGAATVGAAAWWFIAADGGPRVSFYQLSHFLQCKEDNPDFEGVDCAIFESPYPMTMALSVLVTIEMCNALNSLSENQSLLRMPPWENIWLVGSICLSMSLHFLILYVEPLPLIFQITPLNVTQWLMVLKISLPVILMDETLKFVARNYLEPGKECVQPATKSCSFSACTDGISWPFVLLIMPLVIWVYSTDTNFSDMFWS
- assay-notes: Inhibition of SERCA2a (unknown origin)
measured-endpoint: Ki (µM)
# value in µM; strip the unit string

Examples from the recorded data:
1) C/C=C/C/C(C)=C\[C@H]1C/C=C/C=C/C[C@H](C)/C=C(\C)[C@@H](OC)C/C=C/[C@@H](O[C@@H]2O[C@H](CO)[C@@H](O)[C@H](OC)[C@H]2O)CC(=O)O1 :: 0.011
2) C/C=C/C/C(C)=C\[C@H]1C/C=C/C=C/C[C@H](C)/C=C(\C)[C@@H](OC)C/C=C/[C@@H](O)CC(=O)O1 :: 0.027

Note: attention shifts to another entry.
Exam item: Please look up its Ki: C/C=C/C/C(C)=C\[C@@H]1OC(=O)C[C@H](O[C@@H]2O[C@H](CO)[C@@H](O)[C@H](OC)[C@H]2O)/C=C/C[C@H](OC)/C(C)=C/[C@@H](C)C[C@H]2C=C[C@H]1OO2
Marked response: 0.0013

====

- measurement-target: Sarcoplasmic/endoplasmic reticulum calcium ATPase 1 (Oryctolagus cuniculus, UniProt P04191)
- assay-notes: Inhibition of rabbit SERCA1b expressed in COS7 cells microsomal membranes preincubated for 10 mins followed by addition of ATP and measured after 40 mins by ELISA method
- Format: cell-based
Here the recorded IC50 is given for each entry.

1. CC(C)(C)c1cc(O)c(C(C)(C)C)cc1O :: 2000 to 7000 nM

Exam item: Please look up its IC50: C/C(O)=C1\C(=O)[C@@H]2[C@H]3c4c[nH]c5cccc(c45)C[C@H]3C(C)(C)N2C1=O
Marked response: 90 to 2500 nM

Exam item: Please look up its IC50: C/C=C(/C)C(=O)O[C@H]1C(C)=C2[C@H]([C@@H]1OC(=O)CCCCCCC)[C@](C)(OC(C)=O)C[C@H](OC(=O)CCC)[C@@]1(O)[C@H]2OC(=O)[C@@]1(C)O
Marked response: 210 to 12000 nM

====

- measurement-target: Sarcoplasmic/endoplasmic reticulum calcium ATPase 1 (Oryctolagus cuniculus)
- assay-notes: Inhibition of rabbit microsomes SERCA1a by enzyme-coupled method
measured-endpoint: IC50 (µM)
# value in µM; strip the unit string

Exam item: Please look up its IC50: CC(C)(c1ccc(O)cc1)c1ccc(O)cc1
Marked response: 233

====

- measurement-target: Sarcoplasmic/endoplasmic reticulum calcium ATPase 3 (Homo sapiens, UniProt Q93084)
- Sequence (Q93084 whole entry): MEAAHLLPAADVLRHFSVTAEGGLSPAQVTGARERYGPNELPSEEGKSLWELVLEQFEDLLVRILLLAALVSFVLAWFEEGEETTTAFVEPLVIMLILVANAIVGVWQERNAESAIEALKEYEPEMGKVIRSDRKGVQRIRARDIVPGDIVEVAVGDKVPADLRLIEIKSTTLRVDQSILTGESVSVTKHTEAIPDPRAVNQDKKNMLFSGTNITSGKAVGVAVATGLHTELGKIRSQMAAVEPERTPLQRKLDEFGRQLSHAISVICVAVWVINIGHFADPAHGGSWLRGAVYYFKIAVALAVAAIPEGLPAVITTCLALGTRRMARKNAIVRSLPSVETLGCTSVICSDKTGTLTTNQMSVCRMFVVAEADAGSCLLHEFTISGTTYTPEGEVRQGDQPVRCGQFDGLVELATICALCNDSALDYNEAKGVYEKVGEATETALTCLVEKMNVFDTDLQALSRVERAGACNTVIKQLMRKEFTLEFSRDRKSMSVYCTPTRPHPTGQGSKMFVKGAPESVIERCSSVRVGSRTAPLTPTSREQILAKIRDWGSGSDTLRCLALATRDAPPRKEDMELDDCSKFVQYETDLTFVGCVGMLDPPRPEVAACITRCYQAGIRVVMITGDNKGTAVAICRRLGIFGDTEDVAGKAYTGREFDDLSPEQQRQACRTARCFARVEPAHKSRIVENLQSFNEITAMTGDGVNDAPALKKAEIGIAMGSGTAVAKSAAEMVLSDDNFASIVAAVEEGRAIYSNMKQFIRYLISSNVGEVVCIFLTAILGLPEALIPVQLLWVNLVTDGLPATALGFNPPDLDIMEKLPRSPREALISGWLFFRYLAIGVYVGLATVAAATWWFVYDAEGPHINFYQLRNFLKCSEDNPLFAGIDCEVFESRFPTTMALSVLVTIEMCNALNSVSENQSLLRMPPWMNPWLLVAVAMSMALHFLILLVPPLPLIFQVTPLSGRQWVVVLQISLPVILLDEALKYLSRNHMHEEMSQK
- assay-notes: Inhibition of SERCA3 in human platelet microsomes by enzyme-coupled method
measured-endpoint: IC50

1. COc1cc(/C=C/C(=O)CC(=O)/C=C/c2ccc(O)c(OC)c2)ccc1O :: 7 to 15 µM

Note: attention shifts to another entry.
Exam item: Sarcoplasmic/endoplasmic reticulum calcium ATPase 3 (Homo sapiens, UniProt Q93084) / IC50 / CC(C)(O)[C@H]1O[C@H]2CC[C@@]3(C)[C@@](O)(CC[C@H]4Cc5c([nH]c6ccccc56)[C@@]43C)C2=CC1=O : value?
Marked response: 5 µM
